As shown below, each of these compounds has a reported pEC50 value.
target: UniProt:P41143; test: BRET-based G protein; format: cell-based
Sequence (P41143 whole entry): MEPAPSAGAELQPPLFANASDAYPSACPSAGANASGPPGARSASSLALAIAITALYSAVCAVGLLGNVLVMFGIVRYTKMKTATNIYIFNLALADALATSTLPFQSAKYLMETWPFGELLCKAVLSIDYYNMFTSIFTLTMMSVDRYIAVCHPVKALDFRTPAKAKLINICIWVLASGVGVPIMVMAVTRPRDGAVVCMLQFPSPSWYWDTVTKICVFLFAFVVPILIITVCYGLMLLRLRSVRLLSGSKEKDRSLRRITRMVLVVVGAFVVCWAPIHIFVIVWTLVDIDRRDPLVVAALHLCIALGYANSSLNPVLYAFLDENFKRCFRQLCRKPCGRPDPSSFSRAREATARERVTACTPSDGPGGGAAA
pEC50: −log10 of the molar value.

# COMPOUND, pEC50
data = [
    ("O=C(CN1CCCC1C(=O)Nc1nccs1)Nc1cccc(F)c1 (centres unmarked) [MCKK-17R]", "< 3.00"),
    ("O=C(CN1CCCC1C(=O)Nc1nccs1)Nc1cccc(F)c1 (racemic) [MCKK-17]", "< 3.00"),
]

---

As shown below, each of these compounds has a reported Ki value.
target: MOP receptor (Homo sapiens, UniProt P35372); assay: Competitive inhibition of 3H-diprenorphine binding at the MOP receptor; settings: Ki MOP, 3H-diprenorphine 0.3 nM; means ± S.E.M. (n=3)
Sequence (P35372 whole entry): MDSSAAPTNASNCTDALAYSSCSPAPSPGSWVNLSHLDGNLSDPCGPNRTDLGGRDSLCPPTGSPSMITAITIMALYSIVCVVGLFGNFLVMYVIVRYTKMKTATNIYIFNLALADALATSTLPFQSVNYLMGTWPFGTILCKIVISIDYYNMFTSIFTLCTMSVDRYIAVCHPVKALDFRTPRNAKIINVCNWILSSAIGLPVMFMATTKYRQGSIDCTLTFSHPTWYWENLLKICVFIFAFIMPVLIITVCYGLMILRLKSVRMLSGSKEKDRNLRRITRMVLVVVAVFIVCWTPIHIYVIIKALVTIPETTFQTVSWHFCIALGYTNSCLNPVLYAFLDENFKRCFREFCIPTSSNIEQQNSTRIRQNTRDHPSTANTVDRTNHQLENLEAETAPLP
MEASURED METRIC: Ki (µM)

# COMPOUND, VALUE OPERATOR, VAL
records = [
    ("O=C(CN1CCCC1C(=O)Nc1nccs1)Nc1cccc(F)c1 (centres unmarked) [MCKK-17S]", ">", 10000),
    ("O=C(CN1CCCC1C(=O)Nc1nccs1)Nc1cccc(F)c1 (centres unmarked) [MCKK-17R]", "=", 510),
]

Every entry's value here was drawn from paper PMC3702663.
